Molecular target: GST-Nv-NF-kB (Cys allele) (Nematostella vectensis, UniProt E5G601 2-411)
Sequence: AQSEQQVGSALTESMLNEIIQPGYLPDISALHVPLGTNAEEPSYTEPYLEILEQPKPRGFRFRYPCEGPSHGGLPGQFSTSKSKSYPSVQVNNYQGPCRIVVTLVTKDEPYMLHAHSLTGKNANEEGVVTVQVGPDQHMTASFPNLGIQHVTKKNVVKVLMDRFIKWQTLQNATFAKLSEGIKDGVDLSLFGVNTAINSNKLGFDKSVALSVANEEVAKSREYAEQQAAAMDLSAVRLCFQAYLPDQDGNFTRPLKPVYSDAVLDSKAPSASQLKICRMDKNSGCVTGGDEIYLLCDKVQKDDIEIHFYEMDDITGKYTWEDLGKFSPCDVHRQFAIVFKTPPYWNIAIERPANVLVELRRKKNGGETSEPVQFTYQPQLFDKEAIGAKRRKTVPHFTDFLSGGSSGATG
Assay: protein-binding microarray (PBM); PBM: ~300 nM protein, 6 mM HEPES pH 7.8, 80 mM KCl, 0.5 mM EDTA, 0.5 mM EGTA, 6% glycerol, 35 ng/ul poly-dIdC, 1% milk, 1 h, room temperature; Ap Aiptasia and Nv Nematostella (sea anemones) / Co Capsaspora / Aq Amphimedon (sponge) / Dm Drosophila / Hu human; RHD is the Rel homology domain; high values mean tight binding
Conditions: dsDNA, one strand shown
test readout: log10 of binding signal (log10 of the value in z-score)
Plainly stated, the numbers are log10 of binding signal given in z-score.

Q) Fill in the blank: the reported log10 of binding signal of CCGATTAACATCAGGGGAAATACTGATGTTAATCGGGTCTTGATTCGCTTGACGCTGCTG is ____.
A) 0.93

Q) Fill in the blank: the reported log10 of binding signal of CCGATTAACATCAAATTTCCCCCTGATGTTAATCGGGTCTTGATTCGCTTGACGCTGCTG is ____.
A) 1.00

Q) Fill in the blank: the reported log10 of binding signal of CCGATTAACATCAAAAATCCCATTGATGTTAATCGGGTCTTGATTCGCTTGACGCTGCTG is ____.
A) 0.56

Q) Fill in the blank: the reported log10 of binding signal of CCGATTAACATCACCACCCCCCCTGATGTTAATCGGGTCTTGATTCGCTTGACGCTGCTG is ____.
A) 0.57

Q) Fill in the blank: the reported log10 of binding signal of CCGATTAACATCAGGGGGGAGTATGATGTTAATCGGGTCTTGATTCGCTTGACGCTGCTG is ____.
A) 0.70

Q) Fill in the blank: the reported log10 of binding signal of CCGATTAACATCAGGGTGGGAAATGATGTTAATCGGGTCTTGATTCGCTTGACGCTGCTG is ____.
A) 0.49

Q) Fill in the blank: the reported log10 of binding signal of CCGATTAACATCAGGATTTCCCCTGATGTTAATCGGGTCTTGATTCGCTTGACGCTGCTG is ____.
A) 1.05

Q) Fill in the blank: the reported log10 of binding signal of CCGATTAACATCAGGCGAACCCCTGATGTTAATCGGGTCTTGATTCGCTTGACGCTGCTG is ____.
A) 0.04

Q) Fill in the blank: the reported log10 of binding signal of CCGATTAACATCAAAGAATTCCCTGATGTTAATCGGGTCTTGATTCGCTTGACGCTGCTG is ____.
A) 0.86

Q) Fill in the blank: the reported log10 of binding signal of CCGATTAACATCAGGGAAAATTATGATGTTAATCGGGTCTTGATTCGCTTGACGCTGCTG is ____.
A) 0.89

Q) Fill in the blank: the reported log10 of binding signal of CCGATTAACATCAGGGGCCGTAATGATGTTAATCGGGTCTTGATTCGCTTGACGCTGCTG is ____.
A) 0.24

Q) Fill in the blank: the reported log10 of binding signal of CCGATTAACATCAGAAGTGGGAATGATGTTAATCGGGTCTTGATTCGCTTGACGCTGCTG is ____.
A) 0.30

Q) Fill in the blank: the reported log10 of binding signal of CCGATTAACATCAGGGAAGTACATGATGTTAATCGGGTCTTGATTCGCTTGACGCTGCTG is ____.
A) 0.13

Q) Fill in the blank: the reported log10 of binding signal of CCGATTAACATCAGGGATCCCCCTGATGTTAATCGGGTCTTGATTCGCTTGACGCTGCTG is ____.
A) 1.01

Q) Fill in the blank: the reported log10 of binding signal of CCGATTAACATCACGGGGAAACCTGATGTTAATCGGGTCTTGATTCGCTTGACGCTGCTG is ____.
A) 0.86

Q) Fill in the blank: the reported log10 of binding signal of CCGATTAACATCAAGGTAATCCCTGATGTTAATCGGGTCTTGATTCGCTTGACGCTGCTG is ____.
A) 0.32

Q) Fill in the blank: the reported log10 of binding signal of CCGATTAACATCAGGGGAATAAATGATGTTAATCGGGTCTTGATTCGCTTGACGCTGCTG is ____.
A) 0.89

Q) Fill in the blank: the reported log10 of binding signal of CCGATTAACATCAGATCTCCCCCTGATGTTAATCGGGTCTTGATTCGCTTGACGCTGCTG is ____.
A) 0.73

Q) Fill in the blank: the reported log10 of binding signal of CCGATTAACATCAGCGGGAATCCTGATGTTAATCGGGTCTTGATTCGCTTGACGCTGCTG is ____.
A) 0.51

Q) Fill in the blank: the reported log10 of binding signal of CCGATTAACATCAAAAATTCCCATGATGTTAATCGGGTCTTGATTCGCTTGACGCTGCTG is ____.
A) 0.89

Q) Fill in the blank: the reported log10 of binding signal of CCGATTAACATCAGTATGGGAAATGATGTTAATCGGGTCTTGATTCGCTTGACGCTGCTG is ____.
A) 0.38

Q) Fill in the blank: the reported log10 of binding signal of CCGATTAACATCAGGAGTCTCCCTGATGTTAATCGGGTCTTGATTCGCTTGACGCTGCTG is ____.
A) 0.39

Q) Fill in the blank: the reported log10 of binding signal of CCGATTAACATCAGACCTTCCCCTGATGTTAATCGGGTCTTGATTCGCTTGACGCTGCTG is ____.
A) 0.69

Q) Fill in the blank: the reported log10 of binding signal of CCGATTAACATCAGAACTTCCCATGATGTTAATCGGGTCTTGATTCGCTTGACGCTGCTG is ____.
A) 0.41

Q) Fill in the blank: the reported log10 of binding signal of CCGATTAACATCAAAAAACTACCTGATGTTAATCGGGTCTTGATTCGCTTGACGCTGCTG is ____.
A) 0.48

Q) Fill in the blank: the reported log10 of binding signal of CCGATTAACATCAATGCCCCCCCTGATGTTAATCGGGTCTTGATTCGCTTGACGCTGCTG is ____.
A) 0.45

Q) Fill in the blank: the reported log10 of binding signal of CCGATTAACATCAGGAATTCCCATGATGTTAATCGGGTCTTGATTCGCTTGACGCTGCTG is ____.
A) 0.77

Q) Fill in the blank: the reported log10 of binding signal of CCGATTAACATCAGAAATGTCCCTGATGTTAATCGGGTCTTGATTCGCTTGACGCTGCTG is ____.
A) 0.69

Q) Fill in the blank: the reported log10 of binding signal of CCGATTAACATCAGATCTTCCCCTGATGTTAATCGGGTCTTGATTCGCTTGACGCTGCTG is ____.
A) 0.80

Q) Fill in the blank: the reported log10 of binding signal of CCGATTAACATCAAAGTCTCCCCTGATGTTAATCGGGTCTTGATTCGCTTGACGCTGCTG is ____.
A) 0.66

Q) Fill in the blank: the reported log10 of binding signal of CCGATTAACATCAAATAGCCCCCTGATGTTAATCGGGTCTTGATTCGCTTGACGCTGCTG is ____.
A) 0.68

Q) Fill in the blank: the reported log10 of binding signal of CCGATTAACATCAAATTCCCAACTGATGTTAATCGGGTCTTGATTCGCTTGACGCTGCTG is ____.
A) 0.55

Q) Fill in the blank: the reported log10 of binding signal of CCGATTAACATCAAAAAAAGTCCTGATGTTAATCGGGTCTTGATTCGCTTGACGCTGCTG is ____.
A) 0.24

Q) Fill in the blank: the reported log10 of binding signal of CCGATTAACATCAGACATTCCCCTGATGTTAATCGGGTCTTGATTCGCTTGACGCTGCTG is ____.
A) 0.94

Q) Fill in the blank: the reported log10 of binding signal of CCGATTAACATCAAAAATCCCCGTGATGTTAATCGGGTCTTGATTCGCTTGACGCTGCTG is ____.
A) 1.03

Q) Fill in the blank: the reported log10 of binding signal of CCGATTAACATCACGGGGAATCCTGATGTTAATCGGGTCTTGATTCGCTTGACGCTGCTG is ____.
A) 1.00
